Consider the following compounds and their measured MIC readings.
# Tested on: E. faecalis MGH-2
# protocol summary: Antibacterial assay (Test A), microtitration MIC, Gram positive
# Assay type: cell-based
# condition context: Enterococcus faecalis, MGH2; Gram Positive Bacteria; strain MGH-2; read-out: Minimum Inhibitory Concentrations E. faecalis MGH-2
# Experimental: The compounds of the present invention were tested against an assortment of Gram-negative and Gram-positive organisms using standard microtitration techniques (Cohen et. al., Antimicrob., 1985;28:766;Heifetz, et. al., Antimicrob., 1974;6: 124).
Response body: numeric value in µg/mL, unit text excluded.

// below: answered compounds
- compound: "CC(=O)NC[C@H]1CN(c2ccc3c(c2)CCCN(c2cc4c(c(C)c2F)c(=O)c(C(=O)O)cn4C2CC2)C3)C(=O)O1 [Example 3]"
  experimental value: 32
- compound: "COc1c(N2CCCc3cc(N4C[C@H](CNC(C)=O)OC4=O)ccc3C2)c(F)cc2c(=O)c(C(=O)O)cn(C3CC3)c12 (stereo in doubt) [Example 4]"
  experimental value: 1
- compound: "COc1c(N2CCCc3cc(N4C[C@H](CNC(C)=O)OC4=O)ccc3C2)c(F)c(C)c2c(=O)c(C(=O)O)cn(C3CC3)c12 (stereo in doubt) [Example 2]"
  experimental value: 8

So what's the measured MIC for this one? CC(=O)NC[C@H]1CN(c2ccc3c(c2)CCN(c2nc4c(cc2F)c(=O)c(C(=O)O)cn4-c2ccc(F)cc2F)CC3)C(=O)O1 [Example 8]
16

Dear colleague, I am looking for the recorded MIC of the following compound: CC(=O)NC[C@H]1CN(c2ccc3c(c2)CCN(c2cc4c(cc2F)c(=O)c(C(=O)O)cn4C2CC2)CC3)C(=O)O1 [Example 9]
8

Consider the compound CC(=O)NC[C@H]1CN(c2ccc3c(c2)CCCN(c2c(F)cc4c(=O)c(C(=O)O)cn(C5CC5)c4c2Cl)C3)C(=O)O1 [Example 1] and give its measured MIC.
1

Returns the measured MIC for the input compound. Input: CC(=O)NC[C@H]1CN(c2ccc3c(c2)CCCN(c2cc4c(cc2F)c(=O)c(C(=O)O)cn4C2CC2)C3)C(=O)O1 [Example 16]
32

For COc1c(N2CCc3ccc(N4C[C@H](CNC(C)=O)OC4=O)cc3CC2)c(F)cc2c(=O)c(C(=O)O)cn(C3CC3)c12 [Example 7] , what is its reported MIC?
0.5

Look up MIC: COc1c(N2CCc3ccc(N4C[C@H](CNC(C)=O)OC4=O)cc3CC2)c(F)c(C)c2c(=O)c(C(=O)O)cn(C3CC3)c12 [Example 6]
0.25

Which MIC value belongs to CC(=O)NC[C@H]1CN(c2ccc3c(c2)CCCN(c2c(F)cc4c(=O)c(C(=O)O)cn5c4c2OCC5C)C3)C(=O)O1 (some centres unmarked) [Example 5] ?
32

Consider the compound CCn1cc(C(=O)O)c(=O)c2cc(F)c(N3CCCc4cc(N5C[C@H](CNC(C)=O)OC5=O)ccc4C3)nc21 [Example 17] and give its measured MIC.
64

====

# System: E. faecalis MGH-2
# protocol summary: Antibacterial assay (Test A), microtitration MIC, Gram positive
# Assay type: cell-based
# condition context: Enterococcus faecalis, MGH2; Gram Positive Bacteria; strain MGH-2; read-out: Minimum Inhibitory Concentrations E. faecalis MGH-2
Form field: MIC (one value per entry).
Could you give me the number in mg/L? Just the number is fine.

- compound: "CC(=O)NC[C@H]1CN(c2ccc3c(c2)CCCN(c2nc4c(cc2F)c(=O)c(C(=O)O)cn4C2CC2)C3)C(=O)O1 (stereo in doubt)"
  endpoint name: "MIC"
  output unit: "mg/L"
  experimental value: 4
- compound: "CC(=O)NC[C@H]1CN(c2ccc3c(c2)CCN(c2cc4c(c(C)c2F)c(=O)c(C(=O)O)cn4C2CC2)CC3)C(=O)O1"
  endpoint name: "MIC"
  output unit: "mg/L"
  experimental value: 8
- compound: "CC(=O)NC[C@H]1CN(c2ccc3c(c2)CCN(c2c(F)cc4c(=O)c(C(=O)O)cn(C5CC5)c4c2F)CC3)C(=O)O1"
  endpoint name: "MIC"
  output unit: "mg/L"
  experimental value: 1
- compound: "CC(=O)NC[C@H]1CN(c2ccc3c(c2)CCCN(c2c(F)cc4c(=O)c(C(=O)O)cn(C5CC5)c4c2F)C3)C(=O)O1 (stereo in doubt)"
  endpoint name: "MIC"
  output unit: "mg/L"
  experimental value: 8
- compound: "CC(=O)NC[C@H]1CN(c2ccc3c(c2)CCN(c2nc4c(cc2F)c(=O)c(C(=O)O)cn4C2CC2)CC3)C(=O)O1"
  endpoint name: "MIC"
  output unit: "mg/L"
  experimental value: 16

Looking for the measured MIC of "CC(=O)NC[C@H]1CN(c2ccc3c(c2)CCN(c2c(F)cc4c(=O)c(C(=O)O)cn(C5CC5)c4c2Cl)CC3)C(=O)O1" , can you help?
0.25

Every entry's value here was drawn from patent US7304050B2.
